Would you kindly list CD8 EC50 (nM); CD69/CD25 on human T cells, plate-coated antibody for each of these binders?
Target: human CD3 (human, UniProt P07766 23-207; P04234 22-171; P09693 23-182)
Sequence (P07766 23-207, chain 1 of 3): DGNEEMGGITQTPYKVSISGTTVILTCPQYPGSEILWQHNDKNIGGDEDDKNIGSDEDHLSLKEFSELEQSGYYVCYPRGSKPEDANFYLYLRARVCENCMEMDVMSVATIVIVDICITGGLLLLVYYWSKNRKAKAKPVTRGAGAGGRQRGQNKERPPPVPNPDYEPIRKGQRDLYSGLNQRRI
Sequence (P04234 22-171, chain 2 of 3): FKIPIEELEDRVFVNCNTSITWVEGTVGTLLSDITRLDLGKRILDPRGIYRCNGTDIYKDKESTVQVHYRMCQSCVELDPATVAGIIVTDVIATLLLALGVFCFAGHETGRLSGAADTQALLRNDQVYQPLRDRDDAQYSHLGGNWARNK
Sequence (P09693 23-182, chain 3 of 3): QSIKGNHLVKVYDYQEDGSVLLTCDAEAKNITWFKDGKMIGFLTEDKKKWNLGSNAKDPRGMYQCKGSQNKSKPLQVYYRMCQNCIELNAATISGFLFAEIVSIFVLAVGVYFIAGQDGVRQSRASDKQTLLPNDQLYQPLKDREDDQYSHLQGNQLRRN
Assay: cell-based or functional assay
Numbers only, in nM.

- mAb 180 (antibody, V domains shown) VH: EVNLVESGGGLVQPGRSLRLSCAASGFTFDDYTMHWVRQVPGKGLEWVSNISWNSGSLGYADSVKGRFTISRDNAKDSLYLQMNSLRVEDTALYYCAKDSSGYGHYNSYYMDVWGKGTTVTVSS VL: DIQMTQSPSSLSASVGDRVTITCRASQSIRNYLNWYQQKPGKAPKVLIYSASSLQSGVPSRFSGSGSGTDFTLTISSLQPEDFASFYCQQTYSTPITFGQGTRLEIK: 6.57
- mAb 162 (antibody, V domains shown) VH: EVQLVESGGGLVQPGRSLRLSCAASGFTFDNYAMHWVRQAPGKGLEWVSGISWNSGSIGYADSVKGRFTISRDNAKNSLYLELNSLRAEDTALYYCAKDSSGYGYYYNYYMDVWGKGTTVTVSS VL: EIVMTQSPATLSVSPGERATLSCRASQSVRSNLAWYQQKPGQAPRLLIYGASTRATGIPAKFSGSGSGTEFTLTISSLQSEDFAVYYCQYYYNWPHFGQGTRLEIK: 12.7

IN: Requested field: CD8 EC50 (nM); CD69/CD25 on human T cells, plate-coated antibody. Item: mAb 68 (antibody, V domains shown) VH: EVQLVDSGGGLVQPGGSLRLSCSGSGFTFSSYWMSWVRQAPGKGLEWVANIKQDGSQKYYVDSVKGRFTISRDNVKNSLYLQMNSLRVEDTAVYYCARDESSSWYWYFDLWGRGTLVTVSS VL: DIQMTQSPSTLSASVGDRVTLTCRASQNIVKWLAWYQQKPGKAPKLLIYKASSLESGVPSWFSGSGSGTEFTLTINSLQPDDFATYYCQQYYTYSRTFGQGTKVEIK
OUT: 12.6
